Each entry below carries its recorded fold improvement in binding over parent.
Target: T1, mouse tenascin-C rCd4-His-FBG (rat; mouse, UniProt P05540 207-392, limits assumed)
T1 construct: domain: domains 3 and 4; C-terminal FBG fusion; biotinylated in the ELISA screen; also called Mu TNC; mouse TNC rCd4-His-FBG; not shown: 6His tag
T1 sequence (chain (part 1 of 2)): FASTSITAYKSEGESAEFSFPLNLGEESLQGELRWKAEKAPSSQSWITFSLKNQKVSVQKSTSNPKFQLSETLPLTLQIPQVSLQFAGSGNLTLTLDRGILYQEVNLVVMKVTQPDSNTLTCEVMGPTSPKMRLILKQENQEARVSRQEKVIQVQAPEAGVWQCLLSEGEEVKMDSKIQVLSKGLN
T1 sequence (chain (part 2 of 2)): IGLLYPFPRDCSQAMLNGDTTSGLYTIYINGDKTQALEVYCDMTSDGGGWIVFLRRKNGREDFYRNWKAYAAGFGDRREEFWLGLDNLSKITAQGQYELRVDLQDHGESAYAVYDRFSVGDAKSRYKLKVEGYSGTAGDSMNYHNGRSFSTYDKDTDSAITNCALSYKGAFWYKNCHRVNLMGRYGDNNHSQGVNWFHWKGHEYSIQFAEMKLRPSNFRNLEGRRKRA
Test: anti-FLAG capture ELISA, scFv supernatant
MEASUREMENT_NAME: fold improvement in binding over parent

* 161_01_A12 scFv (scFv, V domains shown, not shown: small tags and cut ends, E. coli supernatant scFv) VH: EVRLVQSGAEVKKPGASVKVSCKVSGYTLTELSMHWVRQAPGKGLEWMGGFDPEDGETIYAQKFQGRVTMTEDTSTDTAYMELSSLRSEDTAVYYCATAQPTALANTYWGQGTLVTVSS VL: DIQMTQSPASLPTSVGDRVTITCRASQYIQGFLNWYQQKPGKAPRLLIYAASTLQDGVPSRFSGSGYGTDFTLTISSLQPEDFATYYCQQSYSTPWTFGQGTKVEIK | ≥ 10 fold
* 162_02_F3 scFv (scFv, V domains shown, not shown: small tags and cut ends, E. coli supernatant scFv) VH: EVRLVQSGAEVKKPGASVKVSCKVSGYTLTELSMHWVRQAPGKGLEWMGGFDPEDGETIYAQKFQGRVTMTEDTSTDTAYMELSSLRSEDTAVYYCATAQKETYALTYWGQGTLVTVSS VL: DIQMTQSPASLPTSVGDRVTITCRASQYIQGFLNWYQQKPGKAPRLLIYAASTLQDGVPSRFSGSGYGTDFTLTISSLQPEDFATYYCQNQYRGPWTFGQGTKVEIK | ≥ 10 fold
* 161_01_F6 scFv (scFv, V domains shown, not shown: small tags and cut ends, E. coli supernatant scFv; also called 160_01_F6) VH: EVRLVQSGAEVKKPGASVKVSCKVSGYTLTELSMHWVRQAPGKGLEWMGGFDPEDGETIYAQKFQGRVTMTEDTSTDTAYMELSSLRSEDTAVYYCATAQKENIANRHWGQGTLVTVSS VL: DIQMTQSPASLPTSVGDRVTITCRASQYIQGFLNWYQQKPGKAPRLLIYAASTLQDGVPSRFSGSGYGTDFTLTISSLQPEDFATYYCQQSYSTPWTFGQGTKVEIK | ≥ 10 fold

src = patent US20170306005A1
